# Measurement Notes: in vitro
# Format: in vitro ADME, wheat
# Cond: wheat, wheat flour suspension, pH 5

Compound	metabolised at 0.25 h (%)
O=C1O[C@H]([C@@H](O)CO)C(O)=C1OP(=O)(O)OP(=O)(O)OP(=O)(O)O [ASTP, L-ascorbate 2-triphosphate]	0
O=C1O[C@H]([C@@H](O)CO)C(O)=C1OP(=O)(O)O [ASMP, L-Ascorbate 2-phosphate]	47.1
